Where do the numbers come from? From patent US6642386B2.

- Assay Remarks: Solubility (phosphate buffer)
- Format: physicochemical
- Condition Label: pH 6.5, aqueous buffer, read-out: Solubility (phosphate buffer, pH 6.5)
Result Type: solubility (µg/mL)
API: value field is a number in µg/mL; no unit string.

# input compound: CCOc1cc(OC2CCN(C)CC2)c(F)c([C@@H](Nc2ccc(C(=N)N)cc2)C(=O)O)c1 [Example 13.8] ; wanted: its solubility
5700

* * *

- Assay Remarks: Solubility (phosphate buffer)
- Assay type: physicochemical
- Condition Label: aqueous buffer, pH 5 (stated in the cell), read-out: Solubility (phosphate buffer, pH 5)
Result Type: solubility (µg/mL)
API: value field is a number in µg/mL; no unit string.

# input compound: CCOc1cc(OC2CCN(C)CC2)c(F)c(C(Nc2ccc(C(=N)N)cc2)C(=O)O)c1 (racemic) ; wanted: its solubility
3300
